What ID50 ratio was measured for each of the following?
- TESTED ON: Tubulin (Homo sapiens) (UniProt P68371+Q9H4B7+P0DPH7+P68366+Q13509+Q71U36+P04350+Q3ZCM7+P07437+P68363+Q9BQE3+Q6PEY2+Q13885+Q9BVA1+Q9BUF5)
- TEST SUMMARY: Binding affinity to microtubules, activity expressed as ID50 of compound/ID50 of paclitaxel
- Assay type: protein-complex assay
Give bare numbers.

CC(=O)O[C@H]1C(=O)[C@@]2(C)[C@H]([C@H](OC(=O)c3ccccc3)[C@]3(O)C[C@H](OC(=O)[C@H](OC(C)=O)[C@@H](NC(=O)c4ccccc4)c4ccccc4)C(C)=C1C3(C)C)[C@]1(OC(C)=O)CO[C@@H]1C[C@@H]2O 30

Then there is this compound:
Q) Tell me its ID50 ratio given CC(=O)O[C@@]12CO[C@@H]1C[C@H](O)[C@@]1(C)C(=O)[C@H](O)C3=C(C)[C@@H](OC(=O)/C=C/c4ccccc4)C[C@@](O)([C@@H](OC(=O)c4ccccc4)[C@H]21)C3(C)C as the entry.
A) 23

----------
Provide the recorded ID50 ratio for the entries that follow.
- TESTED ON: Tubulin (Homo sapiens) (UniProt P68371+Q9H4B7+P0DPH7+P68366+Q13509+Q71U36+P04350+Q3ZCM7+P07437+P68363+Q9BQE3+Q6PEY2+Q13885+Q9BVA1+Q9BUF5)
- TEST SUMMARY: Binding affinity to microtubules, activity expressed as ID50 of compound/ID50 of paclitaxel
- Type: protein-complex assay

CC(=O)O[C@H]1C(=O)[C@]2(C)[C@@H](OC(C)=O)C[C@H]3OC[C@@]3(OC(C)=O)[C@H]2[C@H](OC(=O)c2ccccc2)[C@]2(O)C[C@H](OC(=O)[C@H](O)[C@@H](NC(=O)c3ccccc3)c3ccccc3)C(C)=C1C2(C)C 2
CC(=O)O[C@@]12CO[C@@H]1C[C@H](O)[C@@]1(C)C(=O)[C@H](O)C3=C(C)[C@@H](OC(=O)[C@H](O)Cc4ccccc4)C[C@@](O)([C@@H](OC(=O)c4ccccc4)[C@H]21)C3(C)C 4.5
CC(=O)O[C@@]12CO[C@@H]1C[C@H](OC(=O)CCCC(=O)O)[C@@]1(C)C(=O)[C@H](OC(=O)CCCC(=O)O)C3=C(C)[C@@H](OC(=O)[C@H](O)[C@@H](NC(=O)OC(C)(C)C)c4ccccc4)C[C@@](O)([C@@H](OC(=O)c4ccccc4)[C@H]21)C3(C)C 2

Q) Hello, please tell me recorded ID50 ratio for this one: CC(=O)O[C@H]1C(=O)[C@@]2(C)[C@H]([C@H](OC(=O)c3ccccc3)[C@]3(O)C[C@H](OC(=O)[C@H](O)[C@@H](NC(=O)c4ccccc4)c4ccncc4)C(C)=C1C3(C)C)[C@]1(OC(C)=O)CO[C@@H]1C[C@@H]2O
A) 0.4

----------
- TESTED ON: Tubulin (Homo sapiens) (UniProt P68371+Q9H4B7+P0DPH7+P68366+Q13509+Q71U36+P04350+Q3ZCM7+P07437+P68363+Q9BQE3+Q6PEY2+Q13885+Q9BVA1+Q9BUF5)
- TEST SUMMARY: Binding affinity to microtubules, activity expressed as log 1/ID50 of compound/ID50 of paclitaxel
- Assay type: protein-complex assay
PARAMETER: Log 1/ratio
Give bare numbers.

Please state, for each entry, its recorded Log 1/ratio.
1. CC(=O)O[C@H]1C(=O)[C@@]2(C)[C@H]([C@H](OC(=O)c3ccccc3)[C@]3(O)C[C@H](OC(=O)[C@H](OC(C)=O)[C@@H](NC(=O)c4ccccc4)c4ccccc4)C(C)=C1C3(C)C)[C@]1(OC(C)=O)CO[C@@H]1C[C@@H]2O
2. CC(=O)O[C@H]1C(=O)[C@@]2(C)[C@H]([C@H](OC(=O)c3ccccc3)[C@]3(O)C[C@H](OC(=O)[C@@H](NC(=O)OC(C)(C)C)[C@H](O)c4ccccc4)C(C)=C1C3(C)C)[C@]1(OC(C)=O)CO[C@@H]1C[C@@H]2O
3. CC(=O)O[C@@]12CO[C@@H]1C[C@H](O)[C@@]1(C)C(=O)[C@H](O)C3=C(C)[C@@H](OC(=O)[C@@H](NC(=O)OC(C)(C)C)[C@H](O)c4ccccc4)C[C@@](O)([C@@H](OC(=O)c4ccccc4)[C@H]21)C3(C)C
4. CC(=O)O[C@@]12CO[C@@H]1C[C@H](OC(=O)[C@H](N)Cc1ccccc1)[C@@]1(C)C(=O)[C@H](O)C3=C(C)[C@@H](OC(=O)[C@H](O)[C@@H](NC(=O)OC(C)(C)C)c4ccccc4)C[C@@](O)([C@@H](OC(=O)c4ccccc4)[C@H]21)C3(C)C

A)
[-1.48, -2.03, -2.2, 0]
